Molecular target: farnesyl protein transferase (FPT), partially purified from rat brain (Rattus norvegicus, UniProt Q02293+Q04631)
Construct: were partially purified from rat brain by ammonium sulfate fractionation followed by Q-Sepharose
Assay: Inhibition of farnesyl protein transferase (transfer of [3H]farnesyl to Ras-CVLS)
Format: biochemical
Details: Ras-CVLS farnesylation, partially purified rat brain FPT; read-out: FPT IC50
readout_kind: log10 of IC50 (log10 of the value in µM)
# values: log10(IC50), units µM

Example compounds with recorded log10 of IC50:
1. O=C(Cc1cccnc1)N1CCC(C2c3ccc(Cl)cc3CCc3ccc[n+]([O-])c32)CC1 (centres unmarked) = 0.55
2. CCN(CC)c1cnc2c(c1)CCc1cc(Cl)ccc1C2=C1CCN(C(=O)Cc2ccncc2)CC1 = 3.00
3. CC1(C2CCN(C(=O)Cc3ccncc3)CC2)c2ccc(Cl)cc2CCc2cc(Br)cnc21 (centres unmarked) = -1.07

Let us move to another entry and its log10 of IC50.
What value of log10 of IC50 has been reported for the following compound? O=C(Cc1cc[n+]([O-])cc1)N1CCC(C2c3ccc(Cl)cc3CCc3cc(Br)cnc32)CC1 (centres unmarked) -1.44
